target: NFE2L1 (Homo sapiens); experiment: Direct-binding FRET assay; parameters: made in house; settings: Kd, 4°C; N-terminal rhodamine design; mean or single
Sequence (Q14494 654-717 limits assumed): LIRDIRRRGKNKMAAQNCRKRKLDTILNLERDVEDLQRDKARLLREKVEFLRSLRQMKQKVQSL
pKd: −log10 of the molar value. Where no end group is shown, it is not given here.
READOUT KIND: pKd

In: pKd lookup needed for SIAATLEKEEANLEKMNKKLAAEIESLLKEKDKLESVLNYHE [JUN-d1] , thanks.
Out: < 6.00

====

target: MAFB (Homo sapiens); assay: Direct-binding FRET assay; design: made in house; conditions: 37°C; N-terminal rhodamine design; mean or single; read-out: Kd
pKd: −log10 of the molar value. Where no end group is shown, it is not given here.
Would you kindly list pKd for each of these sequences?

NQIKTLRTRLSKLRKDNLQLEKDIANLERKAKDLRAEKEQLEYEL [ATF4-d1] ... < 6.00

Parameters: items (list). Returns: pKd for each item.
1. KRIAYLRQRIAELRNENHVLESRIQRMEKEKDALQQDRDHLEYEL [ATF5-d1]
2. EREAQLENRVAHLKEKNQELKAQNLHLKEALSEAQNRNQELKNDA [XBP1-d1]

Out:
["< 5.30", "< 6.00"]

====

Would you kindly list Kd for each of these sequences?
Molecular target: MAFB (Homo sapiens, UniProt Q9Y5Q3)
Sequence (Q9Y5Q3 238-301 limits assumed): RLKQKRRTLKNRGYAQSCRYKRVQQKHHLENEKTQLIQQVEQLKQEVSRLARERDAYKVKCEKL
Experiment: Direct-binding FRET assay
Design: made in house
Settings: 23°C; C-terminal rhodamine design; mean or single; read-out: Kd
Protocol: The direct binding assay was performed manually in 384-well plates and is similar to a previously described assay. Wells were filled with 20 μL of 1 mM TCEP-HCl. […] Briefly, the Kd of the designed peptide homodimer was experimentally determined and used with previously determined target homodimer Kd values to determine the heterodimer Kd. […] A minimum 15% change in the donor fluorescence upon titrating the acceptor peptide from 0 to 1000 nM was required for a fit to be attempted. […]
Where no end group is shown, it is not given here.

See these solved cases before continuing.
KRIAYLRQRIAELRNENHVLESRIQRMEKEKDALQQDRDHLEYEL [ATF5-d1] ... > 5 µM
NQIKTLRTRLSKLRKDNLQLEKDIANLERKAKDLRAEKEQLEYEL [ATF4-d1] ... > 5 µM

Next sequence, Kd to be filled in.
In: Look up Kd with MAFB (Homo sapiens, UniProt Q9Y5Q3) for this sequence: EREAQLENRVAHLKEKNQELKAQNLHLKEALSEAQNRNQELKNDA [XBP1-d1]
Out: > 5 µM

====

Hi there, I'd appreciate the recorded Kd for every entry that follows.
Target: JUN (Homo sapiens, UniProt P05412)
Assay: Direct-binding FRET assay
Parameters: made in house
Details: 37°C; C-terminal rhodamine design; mean or single; read-out: Kd
Procedure: The direct binding assay was performed manually in 384-well plates and is similar to a previously described assay. Wells were filled with 20 μL of 1 mM TCEP-HCl. […] Briefly, the Kd of the designed peptide homodimer was experimentally determined and used with previously determined target homodimer Kd values to determine the heterodimer Kd. […] A minimum 15% change in the donor fluorescence upon titrating the acceptor peptide from 0 to 1000 nM was required for a fit to be attempted. […]
Where no end group is shown, it is not given here.
Give bare numbers, in nM.

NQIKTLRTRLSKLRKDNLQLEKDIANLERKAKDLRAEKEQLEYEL [ATF4-d1] ... 623

Continue with the next sequence.
In: Give recorded Kd with JUN (Homo sapiens, UniProt P05412) for the following sequence: QRALQLQKEKERLEKMNKKLAAEIESLLEERERLESVLNYHE [JUN-d2]
Out: 1

====

biological target: BACH1 (Homo sapiens, UniProt O14867); experiment: Direct-binding FRET assay; design: made in house; settings: 37°C; C-terminal fluorescein design as donor, TAMRA target titrated; read-out: Kd
Sequence (O14867 557-620 limits assumed): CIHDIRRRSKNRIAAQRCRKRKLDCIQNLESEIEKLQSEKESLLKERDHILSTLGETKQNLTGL
Where no end group is shown, it is not given here.
Kindly supply the reported Kd values for the records listed here.

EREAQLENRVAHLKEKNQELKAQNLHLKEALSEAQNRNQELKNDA [XBP1-d1] ... > 1000 nM

Please find the next sequence below.
In: For the sequence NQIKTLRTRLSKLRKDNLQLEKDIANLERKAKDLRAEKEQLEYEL [ATF4-d1] , what Kd is on record?
Out: > 1000 nM

====

target: MAF (Homo sapiens); experiment: Direct-binding FRET assay; parameters: made in house; settings: 4°C; C-terminal rhodamine design; mean or single
Sequence (O75444 288-351 limits assumed): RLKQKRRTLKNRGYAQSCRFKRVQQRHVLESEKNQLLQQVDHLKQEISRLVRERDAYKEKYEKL
pKd: −log10 of the molar value. Where no end group is shown, it is not given here.
READOUT KIND: pKd

In: Tell me the measured pKd of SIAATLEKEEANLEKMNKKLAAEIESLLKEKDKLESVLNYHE [JUN-d1] , please.
Out: < 6.00

====

biological target: NFE2 (Homo sapiens); construct: made in house; experiment: Direct-binding FRET assay; settings: 4°C; C-terminal rhodamine design; mean or single; read-out: Kd
Where no end group is shown, it is not given here.
READOUT KIND: Kd (nM)
Answers are plain numbers, in nM.

In: Entry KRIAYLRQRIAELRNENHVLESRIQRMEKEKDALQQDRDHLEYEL [ATF5-d1] has what Kd?
Out: 162

====

target: ATF2 (Homo sapiens, UniProt P15336); construct: made in house; assay: Direct-binding FRET assay; details: Kd, 37°C; N-terminal rhodamine design; mean or single
Sequence (P15336 352-415 limits assumed): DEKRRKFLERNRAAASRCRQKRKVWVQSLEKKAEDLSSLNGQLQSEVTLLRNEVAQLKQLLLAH
Where no end group is shown, it is not given here.
READOUT KIND: Kd

In: State the recorded Kd for this entry: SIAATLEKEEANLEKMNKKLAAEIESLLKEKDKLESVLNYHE [JUN-d1]
Out: > 1000 nM

====

Molecular target: CREB1 (Homo sapiens)
Construct: made in house
Sequence (P16220 269-327 limits assumed): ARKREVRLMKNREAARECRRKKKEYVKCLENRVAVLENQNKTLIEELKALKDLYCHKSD
Test: Direct-binding FRET assay
Conditions: 37°C; C-terminal rhodamine design; mean or single; read-out: Kd
pKd: −log10 of the molar value. Where no end group is shown, it is not given here.
READOUT KIND: pKd

In: # get_value(readout='pKd', item= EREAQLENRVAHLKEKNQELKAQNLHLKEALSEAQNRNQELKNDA [XBP1-d1] )
Out: < 6.00

====

target: CREB3L3 (Homo sapiens, UniProt Q68CJ9); construct: made in house; experiment: Direct-binding FRET assay; details: 23°C; C-terminal rhodamine design; mean or single
Sequence (Q68CJ9 243-306 limits assumed): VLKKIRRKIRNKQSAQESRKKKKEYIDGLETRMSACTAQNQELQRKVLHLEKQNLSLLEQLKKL
pKd: −log10 of the molar value. Where no end group is shown, it is not given here.
READOUT KIND: pKd

In: Look at this sequence and give its reported pKd. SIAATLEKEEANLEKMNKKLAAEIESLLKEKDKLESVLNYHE [JUN-d1]
Out: < 6.00

====

Target: BATF2 (Homo sapiens)
Construct: made in house
Sequence (Q8N1L9 17-80 limits assumed): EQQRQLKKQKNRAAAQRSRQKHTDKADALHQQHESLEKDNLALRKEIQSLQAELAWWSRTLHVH
Assay: Direct-binding FRET assay
Conditions: Kd, 4°C; C-terminal fluorescein design as donor, TAMRA target titrated
Where no end group is shown, it is not given here.
READOUT KIND: Kd

In: State the recorded Kd for this entry: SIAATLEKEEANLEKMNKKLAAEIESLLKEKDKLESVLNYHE [JUN-d1]
Out: > 1000 nM

From: paper PMC4335062
